target.system: T1, human CLDN18.2 (human)
T1 construct: also called hCLDN18.2; Claudin-18 splice variant 2
assay.method.text: FACS, NUGC4 cells
readout.type: EC50

binder="11F12-C (antibody, human IgG1, V domains shown, also called chimeric 11F12) VH: EFQLQQSGPELEKPGASVRISCKTSGYSFTGYNMNWVKQSNGESLEWIGYIDPYYGGTRYNQKFKGKATLTVDKSSSTAYMQLKSLTSEDSAVYYCARSYYGNAFDYWGQGTTLTVSS VL: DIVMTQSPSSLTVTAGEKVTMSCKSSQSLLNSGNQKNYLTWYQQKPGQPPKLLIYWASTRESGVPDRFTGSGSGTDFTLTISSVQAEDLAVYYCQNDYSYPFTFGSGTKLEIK" reading="10 µg/mL"
binder="26G6-C (antibody, human IgG1, V domains shown, also called chimeric 26G6) VH: EFQLQQSGPELEKPGASVKISCKTSGYSFTGYNMNWVKQSNGQSLEWIGHIDPYYVTTTYNQKFRGKATLTVDKSSSTAYMQLKSLTSEDSAVYYCARSFYGNAFDYWGQGTTLTVSS VL: DIVMTQSPSSLTVTAGEKVTMSCKSSQSLFNSGNQKNYLTWYQQKPGQPPKLLIYWASTRESGVPDRFTGSGSGTDFTLTISSVQAEDLAVYYCQNDYSFPFTFGSGTKLEIK" reading="67.1 µg/mL"
